Tested on: MCF-7 breast adenocarcinoma cells
Experiment: MCF-7 proliferation assay (14C-thymidine), antagonist mode
Format: cell-based
Details: Homo sapiens, MCF7, 10 pM E2, read-out: MCF-7 IC 50
Recorded Metric: IC50 (nM)

- COc1ccc(-c2ccc3cc(O)ccc3c2Oc2ccc(OCCCC[S+]([O-])CCCC(F)(F)C(F)(F)F)cc2)cc1 (stereo not shown) [Example 2]: 2.5

// provenance: patent US7462647B2
